Give TGI for every item shown.
# Test system: SK-MEL-5 melanoma
# assay.notes: NCI tumour cell line growth inhibition, 48 h
Supply the numeric figure in µM, leaving out any unit text.

[in] Quick one: TGI for CC1(C)[C@@H](O[C@@H]2OC[C@@H](O[C@@H]3O[C@H](CO)[C@@H](O)[C@H](O)[C@H]3O[C@@H]3OC[C@@H](O)[C@H](O)[C@H]3O)[C@H](O)[C@H]2O[C@@H]2O[C@H](CO)[C@@H](O)[C@H](O)[C@H]2O)CC[C@]2(C)[C@H]3CC[C@]45OC[C@@]6(CC[C@](C)(C=O)C[C@H]64)[C@H](O)C[C@@]5(C)[C@]3(C)CC[C@@H]12 ?
[out] 5.36

[in] Next record, please: COc1ccc(C(SCCO)(c2ccccc2)c2ccccc2)cc1
[out] 21.7
